Data credit: ChEMBL document CHEMBL3046258

Tested on: Fusarium oxysporum
Experiment: Antifungal activity against Fusarium oxysporum assessed as inhibition of growth zone at 40 ug/ml after 2 to 3 days by cup-plate method relative to clotrimazole
Type: functional
EXPERIMENTAL_ENDPOINT: inhibition at 40 µg/mL (%)
Express your answer in %, writing the number without its unit.

Study these solved cases before continuing.
| SMILES_DATA | ASSAYED_SYSTEM | TEST_RESULT |
| --- | --- | --- |
| COc1ccc(-c2nnc(-n3c(/C=C/c4ccccc4)nc4ccccc4c3=O)s2)cc1 | Fusarium oxysporum | 40 |
| COc1ccc(/C=C/c2nc3ccccc3c(=O)n2-c2nnc(-c3ccccc3)s2)cc1 | Fusarium oxysporum | 44 |
| O=c1c2ccccc2nc(/C=C/c2ccccc2)n1-c1nnc(-c2cccc(Cl)c2)s1 | Fusarium oxysporum | 58 |

Now consider the entry below.
Which inhibition at 40 µg/mL is listed for `Cc1ccc(-c2nnc(-n3c(/C=C/c4ccccc4)nc4ccccc4c3=O)s2)cc1` ?
42

* * *

Tested on: Staphylococcus aureus
Assay: Antibacterial activity against Staphylococcus aureus MTCC 96 assessed as inhibition of growth zone at 20 ug/ml after 24 hr by cup-plate method relative to norfloxacin
Type: functional
Details: MTCC 96, 24 h
Below, each of the compounds is paired with its reported inhibition at 20 µg/mL value.
Express your answer in %, writing the number without its unit.

Study these solved cases before continuing.
| COMPOUND | ASSAYED_SYSTEM | inhibition at 20 µg/mL / % |
| --- | --- | --- |
| CN(C)C=O [DIMETHYLFORMAMIDE] | Staphylococcus aureus | 6 |
| COc1ccc(-c2nnc(-n3c(/C=C/c4ccccc4)nc4ccccc4c3=O)s2)cc1 | Staphylococcus aureus | 51 |
| O=c1c2ccccc2nc(/C=C/c2ccccc2)n1-c1nnc(-c2cccc(Cl)c2)s1 | Staphylococcus aureus | 61 |
| COc1ccc(/C=C/c2nc3ccccc3c(=O)n2-c2nnc(-c3ccc(OC)cc3)s2)cc1 | Staphylococcus aureus | 66 |
| Cc1ccc(/C=C/c2nc3ccccc3c(=O)n2-c2nnc(-c3ccccc3)s2)cc1 | Staphylococcus aureus | 61 |
| O=c1c2ccccc2nc(/C=C/c2ccccc2)n1-c1nnc(-c2ccccc2)s1 | Staphylococcus aureus | 41 |
| COc1ccc(-c2nnc(-n3c(/C=C/c4ccc(C)cc4)nc4ccccc4c3=O)s2)cc1 | Staphylococcus aureus | 61 |
| Cc1ccc(/C=C/c2nc3ccccc3c(=O)n2-c2nnc(-c3ccc(Cl)cc3)s2)cc1 | Staphylococcus aureus | 72 |

Now consider the entry below.
Which inhibition at 20 µg/mL is listed for `Cc1ccc(/C=C/c2nc3ccccc3c(=O)n2-c2nnc(-c3cccc(Cl)c3)s2)cc1` ?
81

* * *

Below, each of the compounds is paired with its reported inhibition at 40 µg/mL value.
System: Fusarium oxysporum
Assay: Antifungal activity against Fusarium oxysporum assessed as inhibition of growth zone at 40 ug/ml after 2 to 3 days by cup-plate method relative to clotrimazole
Assay type: functional
Express your answer in %, writing the number without its unit.

Study these solved cases before continuing.
| SMILES_DATA | READING_UNIT | inhibition at 40 µg/mL |
| --- | --- | --- |
| Cc1ccc(/C=C/c2nc3ccccc3c(=O)n2-c2nnc(-c3ccccc3)s2)cc1 | % | 47 |
| Cc1ccc(/C=C/c2nc3ccccc3c(=O)n2-c2nnc(-c3ccc(Cl)cc3)s2)cc1 | % | 69 |
| COc1ccc(/C=C/c2nc3ccccc3c(=O)n2-c2nnc(-c3ccc(C)cc3)s2)cc1 | % | 50 |

Which inhibition at 40 µg/mL is listed for `O=c1c2ccccc2nc(/C=C/c2ccccc2)n1-c1nnc(-c2ccc(Cl)cc2)s1` ?
56

Which inhibition at 40 µg/mL is listed for `COc1ccc(/C=C/c2nc3ccccc3c(=O)n2-c2nnc(/C=C/c3ccccc3)s2)cc1` ?
43
